Where these numbers come from: patent US9518018B2

# System: ORYSA: rice (Oryza sativa)
# Experiment description: Post-Emergent Test I herbicidal activity
# Assay type: in vivo
# Experimental context: post-emergence, 336 h, Table 3, 70 g ai/ha, read-out: Visual Growth Reduction (%)-14 Days after Application ORYSA
Property measured: pest or weed control at 70 g/ha (%)

>  <Input smiles>
COc1c(C(=O)O)nc(-c2cc(F)c(Cl)cc2F)c(F)c1N

>  <Result>
0

$$$$
>  <Input smiles>
COc1c(C(=O)O)nc(-c2ccc(I)c(F)c2F)c(F)c1N

>  <Result>
5

$$$$
>  <Input smiles>
COc1ccc(-c2nc(C(=O)O)c(OC)c(N)c2F)cn1

>  <Result>
50

$$$$
>  <Input smiles>
COc1c(C(=O)O)nc(-c2ccc(Cl)c(Cl)c2)c(F)c1N

>  <Result>
15

$$$$
>  <Input smiles>
COC(=O)c1nc(-c2cc(F)c(Cl)cc2F)c(F)c(N)c1OC

>  <Result>
0

$$$$
>  <Input smiles>
COC(=O)c1nc(-c2ccc(Cl)cc2F)c(F)c(N)c1OC

>  <Result>
0

$$$$
>  <Input smiles>
COc1c(C(=O)O)nc(-c2ccc(Cl)cc2F)c(F)c1N

>  <Result>
0

$$$$
>  <Input smiles>
COC(=O)c1nc(-c2cc(F)c(Br)cc2F)c(F)c(N)c1OC

>  <Result>
0

$$$$
>  <Input smiles>
COc1c(C(=O)O)nc(-c2cc(F)c(I)cc2F)c(F)c1N

>  <Result>
15

$$$$

---

# Tested on: ECHCG: barnyardgrass (Echinochloa crus-galli)
# Experiment description: Post-Emergent Test I herbicidal activity
# Type: in vivo
# Experimental context: post-emergence, 336 h, Table 3, 140 g ai/ha, read-out: Visual Growth Reduction (%)-14 Days after Application ECHCG
Reported pest or weed control at 140 g/ha values for a set of compounds
Property measured: pest or weed control at 140 g/ha (%)

>  <Compound>
COC(=O)c1nc(-c2ccc3c(c2F)OCO3)c(F)c(N)c1OC

>  <Result>
0

$$$$
>  <Compound>
COC(=O)c1nc(-c2ccc(Cl)cc2)c(F)c(N)c1OC

>  <Result>
95

$$$$
>  <Compound>
COC(=O)c1nc(-c2ccc(OC)nc2)c(F)c(N)c1OC

>  <Result>
0

$$$$
>  <Compound>
COC(=O)c1nc(C(C)F)cc(N)c1OC (stereo not shown)

>  <Result>
0

$$$$
>  <Compound>
COc1c(C(=O)O)nc(-c2ccc(C3CC3)nc2)c(F)c1N

>  <Result>
85

$$$$
>  <Compound>
COC(=O)c1nc(C(C)(F)F)cc(N)c1OC

>  <Result>
0

$$$$
>  <Compound>
COC(=O)c1nc(-c2ccc(I)cc2)c(F)c(N)c1OC

>  <Result>
80

$$$$
>  <Compound>
COC(=O)c1nc(-c2ccc(Cl)cc2)cc(N)c1OC

>  <Result>
0

$$$$
>  <Compound>
COc1c(C(=O)O)nc(-c2ccc(Cl)c(F)c2F)c(F)c1N

>  <Result>
90

$$$$
>  <Compound>
COC(=O)c1nc(-c2ccc(C(F)(F)F)c(F)c2F)c(F)c(N)c1OC

>  <Result>
10

$$$$

---

# Test system: POLCO: buckwheat, wild (Polygonum convolvulus)
# Experiment description: Post-Emergent Test I herbicidal activity
# Type: in vivo
# Experimental context: Table 4, 17.5 g ai/ha
Reported Visual Growth Reduction (%)-14 Days after Application POLCO values for a set of compounds
Property measured: Visual Growth Reduction (%)-14 Days after Application POLCO

>  <Compound>
COc1c(C(=O)O)nc(-c2ccc(Cl)c(OC)c2F)c(F)c1N [Compound 45]

>  <Units of measure>
%

>  <Result>
100

$$$$
>  <Compound>
COc1c(N)cc(-c2ccc(Cl)cc2)nc1C(=O)O [Compound 46]

>  <Units of measure>
%

>  <Result>
80

$$$$
>  <Compound>
COC(=O)c1nc(-c2ccc(Cl)cc2F)cc(N)c1OC [Compound 6]

>  <Units of measure>
%

>  <Result>
100

$$$$
>  <Compound>
COc1c(C(=O)O)nc(-c2ccc(Cl)cc2)c(F)c1N [Compound 47]

>  <Units of measure>
%

>  <Result>
100

$$$$
>  <Compound>
COC(=O)c1nc(Cl)cc(N)c1OC [Compound 1]

>  <Units of measure>
%

>  <Result>
100

$$$$

---

# Tested on: ECHCG: barnyardgrass (Echinochloa crus-galli)
# Experiment description: Post-Emergent Test I herbicidal activity
# Type: in vivo
# Experimental context: post-emergence, 336 h, Table 3, 140 g ai/ha, read-out: Visual Growth Reduction (%)-14 Days after Application ECHCG
# Procedure: Seeds or nutlets of the desired test plant species were planted in Sun Gro Metro-Mix® 360 planting mixture, which typically has a pH of 6.0 to 6.8 and an organic matter content of about 30 percent, in plastic pots with a surface area of 64 square centimeters. […] A weighed amount, determined by the highest rate to be tested, of each test compound was placed in a 25 mL glass vial and was dissolved in 4 mL of a 97:3 v/v mixture of acetone and DMSO to obtain concentrated stock solutions. […]

>  <Input smiles>
COc1c(C(=O)O)nc(-c2ccc(F)cc2)c(F)c1N

>  <pest or weed control at 140 g/ha [%]>
60

$$$$
>  <Input smiles>
COC(=O)c1nc(-c2ccc(Cl)c(F)c2)c(F)c(N)c1SC

>  <pest or weed control at 140 g/ha [%]>
0

$$$$
>  <Input smiles>
COc1c(C(=O)OCc2ccccc2)nc(-c2ccc(Cl)c(OC)c2F)c(F)c1N

>  <pest or weed control at 140 g/ha [%]>
60

$$$$
>  <Input smiles>
COC(=O)c1nc(-c2ccc(C(F)(F)F)nc2)c(F)c(N)c1OC

>  <pest or weed control at 140 g/ha [%]>
50

$$$$
>  <Input smiles>
COc1c(C(=O)O)nc(-c2ccc(C(F)(F)F)c(F)c2)c(F)c1N

>  <pest or weed control at 140 g/ha [%]>
100

$$$$
>  <Input smiles>
CCOC(=O)c1nc(-c2ccc(Cl)cc2F)cc(N)c1SCC(F)(F)F

>  <pest or weed control at 140 g/ha [%]>
0

$$$$
>  <Input smiles>
COC(=O)c1nc(-c2ccc(Cl)cc2)c(Cl)c(N)c1OC

>  <pest or weed control at 140 g/ha [%]>
0

$$$$
>  <Input smiles>
COc1c(C(=O)O)nc(-c2ccc(Br)cc2F)c(F)c1N

>  <pest or weed control at 140 g/ha [%]>
95

$$$$
>  <Input smiles>
CCOC(=O)c1nc(-c2ccc(Cl)c(OC)c2F)cc(N)c1SC

>  <pest or weed control at 140 g/ha [%]>
100

$$$$

---

>  <Molecule>
COC(=O)c1nc(-c2ccc(Cl)c(F)c2)c(F)c(N)c1OC [Compound 32]

>  <melting point>
109 to 110 °C

$$$$
>  <Molecule>
COC(=O)c1nc(-c2cc(F)c(Cl)cc2F)c(F)c(N)c1OC [Compound 39]

>  <melting point>
120 to 123 °C

$$$$
>  <Molecule>
COc1c(N)cc(-c2ccc(Cl)cc2)nc1C(=O)O [Compound 46]

>  <melting point>
165 °C

$$$$
>  <Molecule>
CCOC(=O)c1nc(-c2ccc(Cl)cc2F)cc(N)c1OCC(F)(F)F [Compound 67]

>  <melting point>
123 to 125 °C

$$$$
>  <Molecule>
CNc1cc(-c2ccc(Cl)cc2)nc(C(=O)OC)c1N [Compound 86]

>  <melting point>
178 to 200 °C

$$$$
>  <Molecule>
COc1c(C(=O)O)nc(-c2ccc(Cl)c(F)c2F)c(F)c1N [Compound 48]

>  <melting point>
151 °C

$$$$
>  <Molecule>
CSc1c(C(=O)O)nc(-c2ccc(Cl)c(F)c2)c(F)c1N [Compound 72]

>  <melting point>
168 to 170 °C

$$$$
>  <Molecule>
CCc1nc(C(=O)OC)c(OC)c(N)c1F [Compound 13]

>  <melting point>
110.5 to 113 °C

$$$$
>  <Molecule>
COC(=O)c1nc(-c2ccc(Cl)cc2F)cc(N)c1OC [Compound 6]

>  <melting point>
139 to 144 °C

$$$$
>  <Molecule>
COc1c(C(=O)O)nc(-c2ccc(F)cc2)c(F)c1N [Compound 52]

>  <melting point>
149 to 151 °C

$$$$
>  <Molecule>
CCOC(=O)c1nc(-c2ccc(Cl)c(OC)c2F)cc(N)c1SC [Compound 88]

>  <melting point>
93 to 94 °C

$$$$
>  <Molecule>
COC(=O)c1nc(-c2cc(F)c(Br)cc2F)c(F)c(N)c1OC [Compound 20]

>  <melting point>
116 to 118 °C

$$$$
>  <Molecule>
COC(=O)c1nc(-c2cc(F)c([Si](C)(C)C)cc2F)c(F)c(N)c1OC

>  <melting point>
137 to 139 °C

$$$$
>  <Molecule>
COc1c(C(=O)O)nc(-c2cc(F)c(Br)cc2F)c(F)c1N [Compound 59]

>  <melting point>
147 to 148 °C

$$$$
>  <Molecule>
COc1c(C(=O)O)nc(-c2cc(F)c(Cl)cc2F)c(F)c1N [Compound 57]

>  <melting point>
153.5 to 155 °C

$$$$
>  <Molecule>
COC(=O)c1nc(-c2ccc(C(F)(F)F)nc2)c(F)c(N)c1OC [Compound 40]

>  <melting point>
130 to 132 °C

$$$$
>  <Molecule>
COC(=O)c1nc(-c2cc(F)c(I)cc2F)c(F)c(N)c1OC [Compound 25]

>  <melting point>
127 to 129 °C

$$$$
>  <Molecule>
COC(=O)c1nc(-c2ccc(C(F)(F)F)cc2)c(F)c(N)c1OC [Compound 35]

>  <melting point>
97 to 99 °C

$$$$
>  <Molecule>
COC(=O)c1nc(-c2ccc(Cl)c(OC)c2F)cc(N)c1OC [Compound 5]

>  <melting point>
114 to 118 °C

$$$$
>  <Molecule>
COc1c(C(=O)OCc2ccccc2)nc(-c2ccc(Cl)c(OC)c2F)c(F)c1N [Compound 66]

>  <melting point>
118 °C

$$$$
>  <Molecule>
COC(=O)c1nc(-c2ccc(Cl)cc2)cc(N(C)C)c1N [Compound 87]

>  <melting point>
153 to 154 °C

$$$$
>  <Molecule>
COc1c(C(=O)O)nc(-c2ccc(C(F)(F)F)c(F)c2F)c(F)c1N [Compound 56]

>  <melting point>
133 to 135 °C

$$$$
>  <Molecule>
COc1c(C(=O)O)nc(-c2ccc(Cl)c(F)c2)c(F)c1N [Compound 49]

>  <melting point>
137 °C

$$$$
>  <Molecule>
COC(=O)c1nc(-c2ccc3c(c2)OCO3)c(F)c(N)c1OC [Compound 37]

>  <melting point>
110 to 112 °C

$$$$
>  <Molecule>
COC(=O)c1nc(-c2ccc([Si](C)(C)C)cc2F)c(F)c(N)c1OC

>  <melting point>
127 to 129 °C

$$$$
>  <Molecule>
COC(=O)c1nc(Cl)c(Cl)c(N)c1OC [Compound 2]

>  <melting point>
119 to 121 °C

$$$$
>  <Molecule>
COC(=O)c1nc(Cl)c(F)c(N)c1SC [Compound 74]

>  <melting point>
75 to 77 °C

$$$$
>  <Molecule>
COc1c(C(=O)O)nc(-c2ccc(Cl)c(OC)c2F)c(F)c1N [Compound 45]

>  <melting point>
143 to 146 °C

$$$$
>  <Molecule>
COc1c(C(=O)O)nc(-c2cc(F)c(I)cc2F)c(F)c1N [Compound 60]

>  <melting point>
132 to 134 °C

$$$$
>  <Molecule>
COC(=O)c1nc(-c2ccc(Cl)c(OC)c2F)cc(N)c1OC(F)F [Compound 9]

>  <melting point>
162 to 164 °C

$$$$
>  <Molecule>
CCc1nc(C(=O)O)c(OC)c(N)c1F [Compound 58]

>  <melting point>
148.5 to 150.5 °C

$$$$
>  <Molecule>
COC(=O)c1nc(Cl)cc(N)c1OC [Compound 1]

>  <melting point>
78 to 79 °C

$$$$
>  <Molecule>
COC(=O)c1nc(-c2ccc(Cl)cc2)c(F)c(N)c1OC [Compound 31]

>  <melting point>
93 to 94 °C

$$$$
>  <Molecule>
COc1c(C(=O)O)nc(-c2ccc(C(F)(F)F)cc2)c(F)c1N [Compound 50]

>  <melting point>
135 to 137 °C

$$$$
>  <Molecule>
COC(=O)c1nc(-c2ccc([Si](C)(C)C)c(F)c2F)c(F)c(N)c1OC

>  <melting point>
123 to 125 °C

$$$$
>  <Molecule>
CSc1c(C(=O)O)nc(Cl)c(F)c1N [Compound 73]

>  <melting point>
176 to 178 °C

$$$$
>  <Molecule>
COC(=O)c1nc(-c2ccc(Cl)c(OC)c2F)c(F)c(N)c1OC [Compound 34]

>  <melting point>
133.5 to 135.5 °C

$$$$
>  <Molecule>
COc1c(C(=O)O)nc(-c2ccc3c(c2)OCO3)c(F)c1N [Compound 53]

>  <melting point>
223 to 225 °C

$$$$
>  <Molecule>
COC(=O)c1nc(-c2ccc(Cl)c(OC)c2F)c(F)c(N)c1SC [Compound 94]

>  <melting point>
113 to 117 °C

$$$$
